Assay: soluble on expression in E. coli; label from the status in PepcDB or PDB records

{"columns": ["chain", "soluble on expression in E. coli"],
 "data": [
  ["MGSDKIHHHHHHMSLSPQASAAPEQGYNFAYLDEQTKRMIRRGLLKAVAIPGYQVPFGGREMPLPYGWGTGGMQVTAAILGADDVLKVIDQGADDTTNAVSIRRFFARTAGVATTERTPEATVIQTRHRIPETALSGEQIMVYQVPIPEPLRFIEPSEAETRTMHALDDYGVMHVKLYEDIATFGHIATSYAYPVTVDERYVMDPSPIPKFDNPKLDMNPALMLFGAGREKRLYAVPPFTRVASLDFEDHPFEVQRWEESCAFCGSHESYLDELIVDDRGGKRFVCSDTDYCTQRRARQEEGEDAQ", "not soluble"],
  ["MVRVPLTAEELERGQRLGELLRSARGDMSMVTVAFDAGISVETLRKIETGRIATPAFFTIAAVARVLDLSLDDVAAVVTFGPVSTS", "soluble"],
  ["MAHHHHHHMECYDNTKQKDLQEEHDVVRNFRRYYFQEKEEMHIAAIKSISDVLKNSISETNFELFINMNEAKCKLNNFINNNQTQQDIISVPHSKRMTIYPIISSCDIYHHFVVKKYTHNENNFHVLKNVIENNADEFSASLQKSLETIGSSSNIMFLNKHTTILTHSNSDCVKSLIMDVVKNQNKQVSIYFTCTSQVNLNYEEKEKKFDENFLEELNKENINITKIDLTQVKDIINKIDFVLIGSEIVTDNGGIINKKGIKLISELCLLYKKPFYVTCQAYKFLKIDKNKCSKDFYTFCTQTVTNNFNNIYEFVSPDFITLFYTDIGIFPPSNISYELSKLYINDAFYF", "soluble"],
  ["MGSDKIHHHHHHMSRILNTEIIIPIIEKLVKKACYELDDNLMCSFRKAYDKEESKIGKETIKILIDNGEYAKKEQLACCHDTGTCIVIMEIGQHVCWEGKPLKDQVNQGVRQGYENGYLRKSMVADPLERINTNDNTPAILHTEIVDGDRVTITVMPKGGGSENMGTFKTLLPGDGIDGIKDFVLETVRRVGGNPCPPYIIGIGVGGTMDHCSWMAKKALLRPLGEFNAKPLYAQLEAELLEAVNNTGIGPLGMGGRITALGVHVDYYPCHITALPVAINFQCNASRHASEII", "not soluble"],
  ["GHRVWIMYAQPYQVTLQEQQQELAQLEMARSALDSLSELICLQDCQGNLLTTNRAFDQFWEGRREEAITATASRVATRKSERKWTTDTQGRSCLLEVNLSSLVSPS", "not soluble"],
  ["MHKINKWSVIYNINSTVTRALRDLMQGILQKI", "soluble"],
  ["GDLVGPGCAEYAAANPTGPASVQGMSQDPVAVAASNNPELTTLTAALSGQLNPQVNLVDTLNSGQYTVFAPTNAAFSKLPASTIDELKTNSSLLTSILTYHVVAGQTSPANVVGTRQTLQGASVTVTGQGNSLKVGNADVVCGGVSTANATVYMIDSVLMPPA", "soluble"],
  ["MGSDKIHHHHHHMATQRGTTAPPQTGSEQTGSVAGAGNARASLGVDGAVRLATSSVTTQSYAREFARLFNVDTAHTLTTTSLKTAQLTATHMCSSVHGLGKSTPLPTEDAYILSLQLQHSGGAELWKRGRRVPTEPYAPGSIMLGHLSDEPVANLPDPFECILFHIPRPAFDELCGLSALPPVGELDDVNRTIDPVLHHLGLALVPAMADPQLAGSLFFDHVAHAMYERLATTYGRFRGTLPPRGRVLSKTQERIAKELLVADLLVEPPLSDIALACGLSVRQFVDAFRSTTGMPPFRWLRAYRIERAKELLRRTSFSLAEIGAACGFADQSHFTRTFSAATGTTPGDWRRACGA", "not soluble"],
  ["MTVIYQTTITRIGASAIDALSDQMLITFREGAPADLEEYCFIHCHGELKGALHPGLQFSLGQHRYPVTAVGSVAEDNLRELGHVTLRFDGLNEAEFPGTVHVAGPVPDDIAPGSVLKFESVKE", "not soluble"],
  ["GIEIVNRKAVWYLTSEIKETETGIEVSAGELHKGDEEVFPVEEVSFDLTPDDTYPVEYMLYLHMNVQTKKVSWSLCKAYLDGEGYCDYQGNERLIMYPVSVTVFPNGTREGTIFLYEKEDREPDRKPPVIVEPQPVGEIGTPDIDE", "soluble"],
  ["MTGHWSYCDDDECGPNRWPTGQHQSPINIDLGEVERKDTHDGIKFVNYDHPIQGDIVNNGHSVQMTPELRSEHPEIYGGGLDQVYRLVQYHFHWGENDNEGSEHTLGGLRYPAELHLVHQGVEDPGKLAVVGVFLQLGKEGKALSNEERVLGKLCNPETVTRVENVRLSEKLPANKRSFWRYEGSLTTPPCSEIVTWTIFTEPVTVTHDQLELFRQVQDIEKRPIKKNYRPTQNLNDRKIVHIVAN", "not soluble"],
  ["MGSDKIHHHHHHMNVHVAVQTQAHRLDSNTAAFARDVLDGLTKPQKELSPKYFYDDTGSELFVEITRLPEYYPTRTELGILRDRAAEIAALIPPDAAIVEFGAGATTKIRLLLAAHQVAAYVPVDISGDFIITQAEALQRDFPQLAVHPLAADFTKPFALPPAVRDLPKVGFFPGSTIGNFEPQEARRFLESARDILGRGARMIIGVDLEKDENVLVPAYDDAAGVTGKFNLNLLIRINRELGADFDLSAFAHRAIYNRDQHRIEMHLVSLRDQSVHLFGERIGFRAGESIHTENSYKYSLERFRALAQQAGWTPARCWTDADAMFSVHAIETNGSRV", "not soluble"],
  ["MYSLLTLLFVLFFSGSTLLVQCGGKKKGATSAEGKSSTMGPAPGGAPAAASAQGEPEEKE", "not soluble"],
  ["MSLTNFSQQHLPLVEKVMVDFIAEYTENERLKEAMLYSIHAGGKRLRPLLVLTTVAAFQKEMETQDYQVAASLEMIHTYSLIHDDLPAMDDDDLRRGKPTNHKVFGEATAILAGDGLLTGAFQLLSLSQLGLSEKVLLMQQLAKAAGNQGMVSGQMGDIEGEKVSLTLEELAAVHEKKTGALIEFALIAGGVLANQTEEVIGLLTQFAHHYGLAFQIRDDLLDATSTEADLGKKVGRDEALNKSTYPALLGIAGAKDALTHQLAEGSAVLEKIKANVPNFSEEHLANLLTQLQLREGHHHHHH", "soluble"]
]}
